Provenance of the data: patent US7452997B2

Kindly state pIC50 for each of the entries shown.
# system tested: human CB1 receptor (Homo sapiens, UniProt P21554)
# Construct: expressed in transfected cells; host or cells: SK-N-MC cells, stably transfected with pcDNA3 CB-1 (human); semi-purified membrane pellet
# Sequence (P21554 whole entry): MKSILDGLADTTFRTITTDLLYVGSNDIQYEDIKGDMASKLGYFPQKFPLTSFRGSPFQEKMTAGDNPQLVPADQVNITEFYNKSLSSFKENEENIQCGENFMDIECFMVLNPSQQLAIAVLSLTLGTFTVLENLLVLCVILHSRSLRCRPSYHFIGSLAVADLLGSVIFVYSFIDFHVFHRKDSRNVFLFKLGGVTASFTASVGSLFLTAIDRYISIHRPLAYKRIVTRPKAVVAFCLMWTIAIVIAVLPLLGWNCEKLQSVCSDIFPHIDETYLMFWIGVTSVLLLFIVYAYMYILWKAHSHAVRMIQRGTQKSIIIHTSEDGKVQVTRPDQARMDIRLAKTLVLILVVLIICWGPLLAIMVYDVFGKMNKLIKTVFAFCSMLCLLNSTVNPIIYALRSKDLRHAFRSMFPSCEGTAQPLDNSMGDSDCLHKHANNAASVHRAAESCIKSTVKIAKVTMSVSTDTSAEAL
# assay info: biochemical
# Type: binding
Numbers only, as −log10 of the molar value.

The examples below pair each entry with its known result.
{"columns": ["compound", "pIC50"],
 "data": [
  ["CC12CCC(C1)C(C)(C)C2NC(=O)c1nn(-c2ccccc2F)c2c1CCCC2 (centres unmarked) [compound 16]", 6.73],
  ["O=C(N[C@@H]1C2CCC(C2)[C@@H]1COCc1ccccc1Br)c1nn(C2CCCCC2)c2c1CCCC2 (some centres unmarked) [compound 108]", 5.62],
  ["COc1ccc(-n2nc(C(=O)NC3C4(C)CCC(C4)C3(C)C)c3c2CCCC3)cc1 (centres unmarked) [compound 9]", 6.47],
  ["CC(NC(=O)c1nn(Cc2ccccc2)c2c1CCCC2c1ccccc1)c1ccccc1 (centres unmarked) [compound 253]", 7.60]
]}

Can you give me pIC50 for all of these, one by one?
1. CC(NC(=O)c1nn(C2CCCCC2)c2c1CCCC2)C1CCC1 (centres unmarked) [compound 247]
2. CCOC(=O)[C@H]1C2CCC(C2)[C@H]1NC(=O)c1nn(CC2CCCCC2)c2c1CCCC2 (some centres unmarked) [compound 124]
3. CC1(C)[C@@H]2CC[C@@](C)(C2)[C@H]1NC(=O)c1nn(-c2ccc(Cl)cc2Cl)c2c1CCC/C2=C\c1ccc(Cl)cc1 [compound 292]
4. CCOC(=O)C1CC=CCC1NC(=O)c1nn(C2CCCCC2)c2c1CCCC2OC (centres unmarked) [compound 120]
5. CCOC(=O)[C@@H]1CCCC[C@H]1NC(=O)c1nn(C2CCCCC2)c2c1CCCC2 [compound 269]

[6.59, 8.15, 7.48, 5.61, 6.72]
